B1: ELF3 (parent)
chain: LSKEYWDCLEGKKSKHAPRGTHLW

- Variants of: B1
- protocol.details: protein stability index of a GFP-peptide fusion (GPS, HEK-293T) (PSI 1-6); higher = more stable;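 note: lentivirally expressed fusions sorted by FACS into six bins by GFP to DsRed ratio, PSI derived from sequencing read proportions per bin multiplied by bin number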
- condition.label: c terminus: a fixed tail appended
Exercise: for every item that follows, state its recorded protein stability index.

Illustrative cases are given below, each with its answer.
1. G20V: 2.11
2. E10Y: 1.63
3. W24V: 2.96
4. Y5G: 2.92
5. H16Q: 2.86
6. C8I: 2.66
7. S2G: 3.12
8. R19G: 2.68

Could you tell me protein stability index for each of these variants? They are listed below.
1. S14T
2. S2I
3. E4I

-- reply
1: 3.13; 2: 2.26; 3: 2.65

Could you tell me protein stability index for each of these variants? They are listed below.
1. L23N
2. H16Y
3. K13H

-- reply
1: 3.29; 2: 3.54; 3: 2.87

Could you tell me protein stability index for each of these variants? They are listed below.
1. G20M
2. H22R
3. Y5V
4. K12G
5. G20S

-- reply
1: 2.44; 2: 2.85; 3: 2.34; 4: 2.58; 5: 3.15

Could you tell me protein stability index for each of these variants? They are listed below.
1. T21E
2. E10L

-- reply
1: 3.37; 2: 1.82
